Sourced from patent US8575153B2

biological target: Recombinant human JAK3 enzyme (JAK3 kinase region; Ala795-Ser1124) (Homo sapiens); experiment: JAK3 Kinase Assay (Kinase-Glo luminescent, ATP consumption); conditions: read-out: Inhibition rate (%) of JAK3 kinase activity
Sequence (P52333 795-1124): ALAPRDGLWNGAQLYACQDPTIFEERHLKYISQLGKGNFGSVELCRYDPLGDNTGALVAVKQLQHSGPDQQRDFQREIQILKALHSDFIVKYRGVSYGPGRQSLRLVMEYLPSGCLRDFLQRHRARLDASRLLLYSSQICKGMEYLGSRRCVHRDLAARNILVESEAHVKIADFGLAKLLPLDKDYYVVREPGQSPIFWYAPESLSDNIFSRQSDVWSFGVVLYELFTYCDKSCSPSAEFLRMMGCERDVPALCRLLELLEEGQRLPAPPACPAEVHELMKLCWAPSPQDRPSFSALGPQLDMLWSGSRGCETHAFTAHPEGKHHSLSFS
Observed Property: inhibition at 0.1 µM (%)

inhibition at 0.1 µM lookup needed for NC(=O)c1cnc(Nc2ccc(N3CCOCC3)cc2)cc1NCc1cccc(Cl)c1 , thanks.
72

inhibition at 0.1 µM lookup needed for CC(C)S(=O)(=O)N1CCN(c2ccc(Nc3cc(NCc4cc(F)cc(F)c4)c(C(N)=O)cn3)cc2)CC1 , thanks.
68

inhibition at 0.1 µM lookup needed for NC(=O)c1cnc(Nc2ccc(N3CCNCC3)cc2)cc1NCc1cccc([N+](=O)[O-])c1 , thanks.
68

* * *

target: Recombinant human JAK3 enzyme (JAK3 kinase region; Ala795-Ser1124) (Homo sapiens); assay: JAK3 Kinase Assay (Kinase-Glo luminescent, ATP consumption); settings: read-out: Inhibition rate (%) of JAK3 kinase activity
Observed Property: inhibition at 1 µM (%)

I: CC(C)N1CCN(c2ccc(Nc3cc(NCc4cccnc4)c(C(N)=O)cn3)cc2)CC1
II: CN1CCCC1CNc1cc(Nc2ccc(N3CCOCC3)cc2)ncc1C(N)=O (centres unmarked)
Which entry has a larger number for inhibition at 1 µM, I or II ? Reply briefly: the label of your chosen item.
I
(I: 92%, II: 61%)

a: NC(=O)c1cnc(Nc2ccc(N3CCOCC3)cc2)cc1NCc1ccccn1
b: N#Cc1ccc2ncn(-c3cc(NCc4cc(F)cc(F)c4)c(C(N)=O)cn3)c2c1
Which entry has a larger number for inhibition at 1 µM, a or b ? Reply briefly: the label of your chosen item.
a

I: NC(=O)c1cnc(-n2cnc3ccccc32)cc1NCc1cc(F)cc(F)c1
II: NC(=O)c1cnc(Nc2ccc(N3CCNCC3)cc2)cc1NCc1cccnc1
Looking at recorded values for inhibition at 1 µM, does I or II come in lower? Reply briefly: the label of your chosen item.
I
(I: 62%, II: 92%)

* * *

target: Recombinant human JAK3 enzyme (JAK3 kinase region; Ala795-Ser1124) (Homo sapiens); assay: JAK3 Kinase Assay (Kinase-Glo luminescent, ATP consumption); conditions: read-out: Inhibition rate (%) of JAK3 kinase activity
Observed Property: inhibition at 0.1 µM (%)

inhibition at 0.1 µM lookup needed for NC(=O)c1cnc(Nc2ccc(N3CCC(CCO)CC3)cc2)cc1NCc1cccc(F)c1F , thanks.
90

inhibition at 0.1 µM lookup needed for N#CCC(=O)N1CCN(c2ccc(Nc3cc(NCc4ccccc4)c(C(N)=O)cn3)cc2)CC1 , thanks.
78

inhibition at 0.1 µM lookup needed for CC(C)C(=O)N1CCN(c2ccc(Nc3cc(NCc4ccccc4)c(C(N)=O)cn3)cc2)CC1 , thanks.
67

inhibition at 0.1 µM lookup needed for Cc1c(F)cccc1CNc1cc(Nc2ccc(N3CCOCC3)cc2)ncc1C(N)=O , thanks.
69

inhibition at 0.1 µM lookup needed for CCN(CC)C(=O)N1CCN(c2ccc(Nc3cc(NCc4ccccc4)c(C(N)=O)cn3)cc2)CC1 , thanks.
89

inhibition at 0.1 µM lookup needed for NC(=O)c1cnc(Nc2ccc(N3CCOCC3)cc2)cc1NCc1cccc(F)c1F , thanks.
77

* * *

target: Recombinant human JAK3 enzyme (JAK3 kinase region; Ala795-Ser1124) (Homo sapiens); assay: JAK3 Kinase Assay (Kinase-Glo luminescent, ATP consumption); conditions: read-out: Inhibition rate (%) of JAK3 kinase activity
Observed Property: inhibition at 0.1 µM (%)

inhibition at 0.1 µM lookup needed for CS(=O)(=O)N1CCN(c2ccc(Nc3cc(NCc4cccc(F)c4F)c(C(N)=O)cn3)cc2)CC1 , thanks.
84

inhibition at 0.1 µM lookup needed for NC(=O)c1cnc(Nc2ccc(N3CCC(C(=O)N(CCO)CCO)CC3)cc2)cc1NCc1ccccc1 , thanks.
84

inhibition at 0.1 µM lookup needed for CC(C)S(=O)(=O)Nc1ccc(Nc2cc(NCc3cc(F)cc(F)c3)c(C(N)=O)cn2)cc1 , thanks.
90

inhibition at 0.1 µM lookup needed for CN1CCN(c2ccc(Nc3cc(NCc4ccccc4)c(C(N)=O)cn3)cc2)CC1 , thanks.
63

inhibition at 0.1 µM lookup needed for CCCC(=O)N1CCN(c2ccc(Nc3cc(NCc4ccccc4)c(C(N)=O)cn3)cc2)CC1 , thanks.
60

inhibition at 0.1 µM lookup needed for C[C@@H]1CN(c2ccc(Nc3cc(NCc4ccccc4)c(C(N)=O)cn3)cc2)C[C@H](C)N1 , thanks.
80

inhibition at 0.1 µM lookup needed for Cc1ccccc1CNc1cc(Nc2ccc(N3CCOCC3)cc2)ncc1C(N)=O , thanks.
63

inhibition at 0.1 µM lookup needed for CCN(CC)CCC1CCN(c2ccc(Nc3cc(NCc4ccccc4)c(C(N)=O)cn3)cc2)CC1 , thanks.
76

inhibition at 0.1 µM lookup needed for CN1CCCN(c2ccc(Nc3cc(NCc4ccccc4)c(C(N)=O)cn3)cc2)CC1 , thanks.
59

inhibition at 0.1 µM lookup needed for COc1ccccc1CNc1cc(Nc2ccc(N3CCN(C(C)C)CC3)cc2)ncc1C(N)=O , thanks.
58

inhibition at 0.1 µM lookup needed for NC(=O)c1cnc(Nc2cccc(N3CCNCC3)c2)cc1NCc1cc(F)cc(F)c1 , thanks.
74
